Tested on: Panel ovarian (Carcinoma cell lines)
Experiment: Anticancer activity against ovarian cancer cell lines of NCI60 panel
Assay type: functional
Settings: Homo sapiens
Where a name gives a salt, the structure may show the parent alone.
GI50 by entry:
The answer is to be given in µM; state only the numeric part.

Please report the recorded GI50 for COc1cc(/C=C2/C(=O)N(c3ccccc3)c3ccccc32)cc(OC)c1OC .
10

Please report the recorded GI50 for COc1cc(/C=C2/C(=O)Nc3cccc(Cl)c32)cc(OC)c1OC .
89.1

Please report the recorded GI50 for CC[C@]1(O)C[C@H]2CN(CCc3c([nH]c4ccccc34)[C@@](C(=O)OC)(c3cc4c(cc3OC)N(C=O)[C@H]3[C@@](O)(C(=O)OC)[C@H](OC(C)=O)[C@]5(CC)C=CCN6CC[C@]43[C@@H]65)C2)C1 [VINCRISTINE SULFATE] .
0.316

Please report the recorded GI50 for COc1cc(/C=C2/C(=O)Nc3ccc(Cl)cc32)cc(OC)c1OC .
17

Please report the recorded GI50 for COc1cc(/C=C2/C(=O)Nc3ccc(O)cc32)cc(OC)c1OC .
14.1

Please report the recorded GI50 for COc1ccc2c(c1)/C(=C\c1cc(OC)c(OC)c(OC)c1)C(=O)N2 .
0.676

Please report the recorded GI50 for COc1cc(/C=C2/C(=O)Nc3ccccc32)cc(OC)c1OC .
24.5

Please report the recorded GI50 for COc1cc(/C=C2/C(=O)N(C)c3ccccc32)cc(OC)c1OC .
18.2

Please report the recorded GI50 for COc1cc(/C=C2/C(=O)Nc3ccc(F)cc32)cc(OC)c1OC .
44.7

Please report the recorded GI50 for COc1cc2c(cc1C)NC(=O)/C2=C/c1cc(OC)c(OC)c(OC)c1 .
75.9

---

TGI by entry:
Test system: Panel leukemia (Carcinoma cell lines)
Test: Anticancer activity against leukemia cancer cell lines of NCI60 panel
Assay type: functional
Details: Homo sapiens, read-out: pTGI (converted)
Counter-ions that a name gives are not always drawn.

Consider the worked cases shown below.
compound: COc1ccc2c(c1)/C(=C\c1cc(OC)c(OC)c(OC)c1)C(=O)N2
TGI: 11.2 µM
//
compound: COc1cc(/C=C2/C(=O)N(C)c3ccccc32)cc(OC)c1OC
TGI: 70.8 µM
//
compound: COc1cc(/C=C2/C(=O)Nc3ccc(O)cc32)cc(OC)c1OC
TGI: 30.9 µM
//
compound: COc1cc2c(cc1C)NC(=O)/C2=C/c1cc(OC)c(OC)c(OC)c1
TGI: 52.5 µM
//
compound: COc1cc(/C=C2/C(=O)Nc3ccccc32)cc(OC)c1OC
TGI: 87.1 µM
//
compound: COc1cc(/C=C2/C(=O)Nc3cccc(Cl)c32)cc(OC)c1OC
TGI: 16.2 µM
//
compound: COc1cc(/C=C2/C(=O)N(c3ccccc3)c3ccccc32)cc(OC)c1OC
TGI: 14.1 µM

Switching to the query record.
Please report the recorded TGI for CC[C@]1(O)C[C@H]2CN(CCc3c([nH]c4ccccc34)[C@@](C(=O)OC)(c3cc4c(cc3OC)N(C=O)[C@H]3[C@@](O)(C(=O)OC)[C@H](OC(C)=O)[C@]5(CC)C=CCN6CC[C@]43[C@@H]65)C2)C1 [VINCRISTINE SULFATE] .
15.8 µM
